# System: Staphylococcus epidermidis
# protocolSummary: Bactericidal activity against methicillin-resistant Staphylococcus epidermidis isolate 458/11 after 24 hrs
# Format: functional
# measurementSetup: isolate 458/11, 24 h, read-out: MBC99.9
# MBC values compiled below
assayReadout: MBC

compoundsmiles=CCCN(CCC)C(=O)[C@H](CC)[C@H]1CC[C@H](C)[C@H]([C@@H](C)[C@H](O)[C@H](C)C(=O)[C@H](CC)[C@H]2O[C@]3(C=C[C@@H](O)[C@]4(CC[C@@](C)([C@H]5CC[C@](O)(CC)[C@H](C)O5)O4)O3)[C@H](C)C[C@@H]2C)O1 assayreadout=MBC observedvalue="256 µg/mL"
compoundsmiles=O=C(O)c1cn(C2CC2)c2cc(N3CCNCC3)c(F)cc2c1=O assayreadout=MBC observedvalue="> 256 µg/mL"
compoundsmiles=CC[C@@H](C(=O)[C@@H](C)[C@@H](O)[C@H](C)[C@@H]1O[C@@H]([C@@H](CC)C(=O)N(CCO)CCO)CC[C@@H]1C)[C@H]1O[C@]2(C=C[C@@H](O)[C@]3(CC[C@@](C)([C@H]4CC[C@](O)(CC)[C@H](C)O4)O3)O2)[C@H](C)C[C@@H]1C assayreadout=MBC observedvalue="128 µg/mL"
compoundsmiles=CC[C@@H](C(=O)[C@@H](C)[C@@H](O)[C@H](C)[C@@H]1O[C@@H]([C@@H](CC)C(=O)N(CC)CC)CC[C@@H]1C)[C@H]1O[C@]2(C=C[C@@H](O)[C@]3(CC[C@@](C)([C@H]4CC[C@](O)(CC)[C@H](C)O4)O3)O2)[C@H](C)C[C@@H]1C assayreadout=MBC observedvalue="128 µg/mL"
compoundsmiles=CCCCN(CCCC)C(=O)[C@H](CC)[C@H]1CC[C@H](C)[C@H]([C@@H](C)[C@H](O)[C@H](C)C(=O)[C@H](CC)[C@H]2O[C@]3(C=C[C@@H](O)[C@]4(CC[C@@](C)([C@H]5CC[C@](O)(CC)[C@H](C)O5)O4)O3)[C@H](C)C[C@@H]2C)O1 assayreadout=MBC observedvalue="256 µg/mL"
compoundsmiles=CC[C@@H](C(=O)[C@@H](C)[C@@H](O)[C@H](C)[C@@H]1O[C@@H]([C@@H](CC)C(=O)N2CCOCC2)CC[C@@H]1C)[C@H]1O[C@]2(C=C[C@@H](O)[C@]3(CC[C@@](C)([C@H]4CC[C@](O)(CC)[C@H](C)O4)O3)O2)[C@H](C)C[C@@H]1C assayreadout=MBC observedvalue="> 256 µg/mL"
